- Test system: DLK;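 further: KINOMEscan scanMAX binding as percent activity remaining versus control; lower means stronger binding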
- Construct: gene MAP3K12
- STUDY_CONDITIONS: Compound Concentration (nM):1000
MEASUREMENT_TYPE: Percent Control (%)
Express the result in % but write the number alone.

[
  {
    "MOLECULE": "CN(C)c1cc2c(Nc3ccc4c(cnn4Cc4ccccc4)c3)ncnc2cn1 [GW282974X]",
    "TEST_TARGET": "DLK",
    "MEASUREMENT_TYPE": "Percent Control",
    "REPORTED_RESULT": 82
  },
  {
    "MOLECULE": "CCS(=O)(=O)c1ccc(OC)c(Nc2ncc(-c3cccc(F)c3)o2)c1 [GW621970X]",
    "TEST_TARGET": "DLK",
    "MEASUREMENT_TYPE": "Percent Control",
    "REPORTED_RESULT": 71
  },
  {
    "MOLECULE": "COc1cccc(-n2ncc3c(N/N=C/c4ccncc4)ncnc32)c1 [GW784752X]",
    "TEST_TARGET": "DLK",
    "MEASUREMENT_TYPE": "Percent Control",
    "REPORTED_RESULT": 82
  }
]

Q: What does the data say about its Percent Control? Entry: COc1cc(C)c(N(C)C(=O)CN(C)C)cc1Nc1nc(Nc2cccc(F)c2C(N)=O)c2cc[nH]c2n1
Ans: 80

Q: What does the data say about its Percent Control? Entry: Cc1cc(O)cc(C)c1/C=C/c1cncc(C(N)=O)c1 [GW435821X]
Ans: 90
